Each item that follows carries a reported log10 IC50.
# System: HeLa
# Assay details: CCK-8 antiproliferative assay, HeLa
# Assay type: cell-based
# Measurement parameters: Homo sapiens, HeLa, 48 h, read-out: IC50 HeLa
The common logarithm of IC50 in µM is what is listed.

Use the examples below as a reference point.
COc1ccc(F)cc1/C=C/C(=O)c1ccc(N2CCCC2)cc1 [Compound D1]	0.72
COc1ccc(Cl)cc1C(=O)/C=C/c1ccc(N2CCCC2)cc1	0.20
COc1ccccc1C(=O)/C=C/c1ccc(N2CCCC2)cc1	0.48

--- query ---
Query: Give the reported value of log10 IC50 for this record: `O=C(/C=C/c1ccc(N2CCCC2)cc1)c1cccc(C(F)(F)F)c1`
Reply: 1.50

====

# IC50 values compiled below
# Tested on: HeLa
# Assay details: CCK-8 antiproliferative assay, HeLa
# Format: cell-based
# Measurement parameters: Homo sapiens, HeLa, 48 h, read-out: IC50 HeLa

Some compounds with recorded IC50:
O=C(/C=C/c1ccc(OC(F)(F)F)cc1)c1ccc(N2CCCC2)cc1 [Compound D6]	> 100 µM
COc1ccc(C(=O)/C=C/c2ccc(N3CCCC3)cc2)c(OC)c1 [Compound A2]	16.7 µM
O=C(/C=C/c1ccc(N2CCCC2)cc1)c1ccccc1C(F)(F)F [Compound A5]	13.6 µM
COc1ccc(Br)cc1/C=C/C(=O)c1ccc(N2CCCC2)cc1 [Compound D2]	10.8 µM
COc1cccc(OC)c1C(=O)/C=C/c1ccc(N2CCCC2)cc1 [Compound A3]	31.5 µM

The record that follows has no IC50 shown yet.
Query: Could you please provide reported IC50 for COc1ccc(Br)cc1C(=O)/C=C/c1ccc(N2CCCC2)cc1 [Compound B2] ? Thanks!
Reply: 1.09 µM

====

Measured IC50, listed per entry.
# Tested on: HeLa
# Assay details: CCK-8 antiproliferative assay, HeLa
# Type: cell-based
# Measurement parameters: Homo sapiens, HeLa, 48 h, read-out: IC50 HeLa

COc1ccc(OC)c(C(=O)/C=C/c2ccc(N3CCCC3)cc2)c1	9.3 µM
O=C(/C=C/c1cccc(OC(F)(F)F)c1)c1ccc(N2CCCC2)cc1	32 µM
O=C(/C=C/c1ccc(N2CCCC2)cc1)c1ccc(OC(F)(F)F)cc1	> 100 µM
COc1ccc(C(=O)/C=C/c2ccc(N3CCCC3)cc2)c(OC)c1OC	15.7 µM
O=C(/C=C/c1ccc(N2CCCC2)cc1)c1ccc(C(F)(F)F)cc1	> 100 µM

Query: Consider the molecule `O=C(/C=C/c1ccc(N2CCCC2)cc1)c1cccc(OC(F)(F)F)c1` and give its recorded IC50.
Reply: > 100 µM

Query: Kindly indicate its recorded IC50. Item: `O=C(/C=C/c1ccc(N2CCCC2)cc1)c1ccccc1OC(F)(F)F`
Reply: 0.9 µM
